This collection of values is drawn from paper PMC3726442.

Property: plasma concentration, mean ±SD; scope: individual compounds
EXPERIMENT_NOTES: Plasma concentrations of tamoxifen and its metabolites in breast cancer patients on tamoxifen, by HPLC-tandem mass spectrometry
COND: genotype SULT1A1 wt/*2, n = 46
Output spec: scalar in ng/mL, unitless text.

COMPOUND	plasma concentration, mean ±SD / ng/mL
CC/C(=C(\c1ccc(O)cc1)c1ccc(OCCNC)cc1)c1ccccc1 [Endoxifen, N-desmethyl-4-hydroxy-tamoxifen]	26.59
CC/C(=C(\c1ccccc1)c1ccc(OCCNC)cc1)c1ccccc1	441.63
CC/C(=C(\c1ccccc1)c1ccc(OCCN(C)C)cc1)c1ccccc1 [Tamoxifen, reference compound]	204.84

**Q:** Item CC/C(=C(\c1ccccc1)c1ccc(OCC[N+](C)(C)[O-])cc1)c1ccccc1 [Tamoxifen-N-oxide, tamoxifen-N-oxide] : provide plasma concentration, mean ±SD
**A:** 51.02

---

Recorded plasma concentration, mean ±SD, one value per entry.
EXPERIMENT_NOTES: Plasma concentrations of tamoxifen and its metabolites in breast cancer patients on tamoxifen, by HPLC-tandem mass spectrometry
COND: genotype SULT1A2 wt/*2, n = 33
Write the number in ng/mL without appending the unit.

COMPOUND	plasma concentration, mean ±SD / ng/mL
CC/C(=C(\c1ccccc1)c1ccc(OCCN(C)C)cc1)c1ccccc1 [Tamoxifen, reference compound]	227.33

**Q:** Hello, please tell me recorded plasma concentration, mean ±SD for this one: CC/C(=C(\c1ccccc1)c1ccc(OCC[N+](C)(C)[O-])cc1)c1ccccc1 [Tamoxifen-N-oxide, tamoxifen-N-oxide]
**A:** 60.87

**Q:** Name the recorded plasma concentration, mean ±SD of the item CC/C(=C(\c1ccc(O)cc1)c1ccc(OCCNC)cc1)c1ccccc1 [Endoxifen, N-desmethyl-4-hydroxy-tamoxifen] in your answer.
**A:** 28.84

**Q:** Using the record for CC/C(=C(\c1ccccc1)c1ccc(OCCNC)cc1)c1ccccc1 [N-desmethyl-tamoxifen] , state its measured plasma concentration, mean ±SD.
**A:** 478.01

---

EXPERIMENT_NOTES: Plasma concentrations of tamoxifen and its metabolites in breast cancer patients on tamoxifen, by HPLC-tandem mass spectrometry
COND: genotype SULT1A1 *2/*2, n = 15
plasma concentration, median values for the compounds below.
Your answer should be a plain number; it is taken to be in ng/mL.

Examples from the recorded data:
COMPOUND	MEASURE_UNIT	plasma concentration, median
CC/C(=C(\c1ccccc1)c1ccc(OCCNC)cc1)c1ccccc1	ng/mL	432.49
CC/C(=C(\c1ccc(O)cc1)c1ccc(OCCNC)cc1)c1ccccc1 [Endoxifen, N-desmethyl-4-hydroxy-tamoxifen]	ng/mL	19.82
CC/C(=C(\c1ccccc1)c1ccc(OCCN(C)C)cc1)c1ccccc1 [Tamoxifen, reference compound]	ng/mL	161.90

Now consider a different compound.
**Q:** Respond only with plasma concentration, median recorded for CC/C(=C(\c1ccccc1)c1ccc(OCC[N+](C)(C)[O-])cc1)c1ccccc1 [Tamoxifen-N-oxide, tamoxifen-N-oxide]
**A:** 59.27

---

EXPERIMENT_NOTES: Plasma concentrations of tamoxifen and its metabolites in breast cancer patients on tamoxifen, by HPLC-tandem mass spectrometry
COND: genotype SULT1E1 wt/wt, n = 88
Recorded measurements of plasma concentration, mean ±SD, one per entry

Example results:
COMPOUND	plasma concentration, mean ±SD
CC/C(=C(\c1ccccc1)c1ccc(OCC[N+](C)(C)[O-])cc1)c1ccccc1 [Tamoxifen-N-oxide, tamoxifen-N-oxide]	51.48 ± 25.13 ng/mL
CC/C(=C(\c1ccc(O)cc1)c1ccc(OCCNC)cc1)c1ccccc1 [Endoxifen, N-desmethyl-4-hydroxy-tamoxifen]	25.41 ± 19.51 ng/mL
CC/C(=C(\c1ccccc1)c1ccc(OCCNC)cc1)c1ccccc1	448.30 ± 202.82 ng/mL

Now look at this entry.
**Q:** Output plasma concentration, mean ±SD of CC/C(=C(\c1ccccc1)c1ccc(OCCN(C)C)cc1)c1ccccc1 [Tamoxifen, reference compound]
**A:** 202.17 ± 101.97 ng/mL

---

EXPERIMENT_NOTES: Plasma concentrations of tamoxifen and its metabolites in breast cancer patients on tamoxifen, by HPLC-tandem mass spectrometry
COND: genotype SULT1E1 wt/*2, n = 28
Each item that follows carries a reported plasma concentration, mean ±SD.
Provide only the numeric value, understood in ng/mL.

Solved cases (3 shown):
COMPOUND	plasma concentration, mean ±SD (ng/mL)
CC/C(=C(\c1ccccc1)c1ccc(OCC[N+](C)(C)[O-])cc1)c1ccccc1 [Tamoxifen-N-oxide, tamoxifen-N-oxide]	47.65
CC/C(=C(\c1ccc(O)cc1)c1ccc(OCCNC)cc1)c1ccccc1 [Endoxifen, N-desmethyl-4-hydroxy-tamoxifen]	24.30
CC/C(=C(\c1ccccc1)c1ccc(OCCN(C)C)cc1)c1ccccc1 [Tamoxifen, reference compound]	200.49

With those in mind, consider the next compound.
**Q:** Identify the reported plasma concentration, mean ±SD for the following entry. CC/C(=C(\c1ccccc1)c1ccc(OCCNC)cc1)c1ccccc1
**A:** 462.59

---

The molecules listed here are annotated with their plasma concentration, mean ±SD.
EXPERIMENT_NOTES: Plasma concentrations of tamoxifen and its metabolites in breast cancer patients on tamoxifen, by HPLC-tandem mass spectrometry
COND: genotype SULT1A1 *2/*2, n = 15
Quick note: give the figure in ng/mL, leave out the unit.

Study these solved cases before continuing.
MOLECULE	plasma concentration, mean ±SD (ng/mL)
CC/C(=C(\c1ccccc1)c1ccc(OCC[N+](C)(C)[O-])cc1)c1ccccc1 [Tamoxifen-N-oxide, tamoxifen-N-oxide]	56.02
CC/C(=C(\c1ccccc1)c1ccc(OCCN(C)C)cc1)c1ccccc1 [Tamoxifen, reference compound]	205.87

**Q:** Specify measured plasma concentration, mean ±SD for CC/C(=C(\c1ccccc1)c1ccc(OCCNC)cc1)c1ccccc1 .
**A:** 459.42

**Q:** Tell me measured plasma concentration, mean ±SD for CC/C(=C(\c1ccc(O)cc1)c1ccc(OCCNC)cc1)c1ccccc1 [Endoxifen, N-desmethyl-4-hydroxy-tamoxifen] please.
**A:** 28.68

---

A collection of molecules and their measured plasma concentration, mean ±SD
EXPERIMENT_NOTES: Plasma concentrations of tamoxifen and its metabolites in breast cancer patients on tamoxifen, by HPLC-tandem mass spectrometry
COND: genotype SULT1A2 *2/*3, n = 13
# value in ng/mL; strip the unit string

Below, each entry is followed by its recorded plasma concentration, mean ±SD result.
MOLECULE	plasma concentration, mean ±SD (ng/mL)
CC/C(=C(\c1ccccc1)c1ccc(OCCN(C)C)cc1)c1ccccc1 [Tamoxifen, reference compound]	222.50
CC/C(=C(\c1ccccc1)c1ccc(OCC[N+](C)(C)[O-])cc1)c1ccccc1 [Tamoxifen-N-oxide, tamoxifen-N-oxide]	46.94
CC/C(=C(\c1ccc(O)cc1)c1ccc(OCCNC)cc1)c1ccccc1 [Endoxifen, N-desmethyl-4-hydroxy-tamoxifen]	34.61

**Q:** Kindly indicate its recorded plasma concentration, mean ±SD. Item: CC/C(=C(\c1ccccc1)c1ccc(OCCNC)cc1)c1ccccc1
**A:** 478.66

---

Here the recorded plasma concentration, mean ±SD is given for each entry.
EXPERIMENT_NOTES: Plasma concentrations of tamoxifen and its metabolites in breast cancer patients on tamoxifen, by HPLC-tandem mass spectrometry
COND: genotype SULT1A1 wt/wt, n = 60

Please review the following examples before continuing.
COMPOUND	plasma concentration, mean ±SD
CC/C(=C(\c1ccccc1)c1ccc(OCCNC)cc1)c1ccccc1	458.09 ± 209.96 ng/mL
CC/C(=C(\c1ccccc1)c1ccc(OCCN(C)C)cc1)c1ccccc1 [Tamoxifen, reference compound]	200.92 ± 86.14 ng/mL
CC/C(=C(\c1ccc(O)cc1)c1ccc(OCCNC)cc1)c1ccccc1 [Endoxifen, N-desmethyl-4-hydroxy-tamoxifen]	22.43 ± 17.79 ng/mL

**Q:** Output measured plasma concentration, mean ±SD for this item: CC/C(=C(\c1ccccc1)c1ccc(OCC[N+](C)(C)[O-])cc1)c1ccccc1 [Tamoxifen-N-oxide, tamoxifen-N-oxide]
**A:** 48.69 ± 18.93 ng/mL
